# MEASURED TARGET: human Gal-1 (hGal-1)
# Sequence (P09382 2-135 limits assumed): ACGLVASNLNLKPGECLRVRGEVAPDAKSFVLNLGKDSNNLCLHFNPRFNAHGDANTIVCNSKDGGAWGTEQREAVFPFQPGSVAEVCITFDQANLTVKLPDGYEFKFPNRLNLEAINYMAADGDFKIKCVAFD
# TEST NAME: Competitive binding assay: binding of biotinylated hGal-1 to microplate-adsorbed asialofetuin (ASF)
# RUN PARAMETERS: Activities on hGal-1; mean values of several measurements
ATTRIBUTE MEASURED: IC50 (nM)
# unit: nM | format: bare number

Q: Please list IC50 recorded for the compound Cn1c(=O)[nH]c2cc(C3=NOC(C[C@H]4O[C@H](CO)[C@H](O)[C@H](n5cc(-c6cc(F)c(F)c(F)c6)nn5)[C@H]4O)C3)ccc21 (stereo partly drawn)
A: 18900

Q: Please list IC50 recorded for the compound CO[C@@H]1[C@@H](n2cc(-c3cc(F)c(F)c(F)c3)nn2)[C@@H](O)[C@@H](CO)O[C@@H]1Cn1cc(C2CCN(S(=O)(=O)N(C)C)CC2)nn1
A: 1240

Q: Please list IC50 recorded for the compound CO[C@@H]1[C@@H](n2cc(-c3ccc(C)c(F)c3F)nn2)[C@@H](O)[C@@H](CO)O[C@@H]1CN1CC(=O)N(C2CCCCC2)C1
A: 1630

====

Provide the reported pIC50 of each item.
# MEASURED TARGET: human Gal-1 (hGal-1)
# TEST NAME: Competitive binding assay: binding of biotinylated hGal-1 to microplate-adsorbed asialofetuin (ASF)
# RUN PARAMETERS: Activities on hGal-1; mean values of several measurements
Remember the convention: pIC50 equals -log10 of concentration in molar.

Q: Please list pIC50 recorded for the molecule CCCC(=O)N1CCC(c2cc(C[C@H]3O[C@H](CO)[C@H](O)[C@H](n4cc(-c5cc(F)c(F)c(F)c5)nn4)[C@H]3OC)no2)CC1
A: 6.03

Q: Please list pIC50 recorded for the molecule OC[C@H]1O[C@H](CC2CC(c3cncnc3)=NO2)[C@H](O)[C@@H](n2cc(-c3cc(F)c(F)c(F)c3)nn2)[C@H]1O (stereo partly drawn)
A: 5.64

Q: Please list pIC50 recorded for the molecule CO[C@@H]1[C@@H](n2cc(-c3ccc(Br)c(F)c3)nn2)[C@@H](O)[C@@H](CO)O[C@@H]1Cc1cc(C2CCN(C(=O)OC(C)(C)C)CC2)no1
A: 6.00

====

# MEASURED TARGET: human Gal-1 (hGal-1)
# TEST NAME: Competitive binding assay: binding of biotinylated hGal-1 to microplate-adsorbed asialofetuin (ASF)
# RUN PARAMETERS: Activities on hGal-1; mean values of several measurements
Entries whose IC50 is below 2 µM take 1 (yes); entries at or above 2 µM take 0 (no).

Q: Say whether its IC50 is strictly beneath 2 µM. Entry: CCNC(=O)N1CCC(c2cc(C[C@H]3O[C@H](CO)[C@H](O)[C@H](n4cc(-c5cc(F)c(F)c(F)c5)nn4)[C@H]3O)no2)CC1 [Example 3.27]
A: 1 (yes)

Q: Say whether its IC50 is strictly beneath 2 µM. Entry: CO[C@@H]1[C@@H](n2cc(-c3cc(F)c(F)c(F)c3)nn2)[C@@H](O)[C@@H](CO)O[C@@H]1CN1CN(C2CCN(C(C)=O)CC2)CC1=O [Example 6.07]
A: 1 (yes)

Q: Say whether its IC50 is strictly beneath 2 µM. Entry: CO[C@@H]1[C@@H](n2cc(-c3ccc(C)c(F)c3F)nn2)[C@@H](O)[C@@H](CO)O[C@@H]1Cc1cc(C2(C#N)CCCC2)no1 [Ex 1.292]
A: 0 (no)

Q: Say whether its IC50 is strictly beneath 2 µM. Entry: COc1cc(-c2cn([C@H]3[C@@H](O)[C@@H](CO)O[C@H](CC4CC(C5CCN(C(=O)OC(C)(C)C)CC5)=NO4)[C@@H]3O)nn2)ccc1Cl (stereo partly drawn) [Ex 1.110]
A: 0 (no)

Q: Say whether its IC50 is strictly beneath 2 µM. Entry: CO[C@@H]1[C@@H](n2cc(-c3cc(F)cc(F)c3)nn2)[C@@H](O)[C@@H](CO)O[C@@H]1Cc1cn(C2CCN(C(=O)OCc3ccccc3)CC2)nn1 [Example 4.37]
A: 1 (yes)

Q: Say whether its IC50 is strictly beneath 2 µM. Entry: OC[C@H]1O[C@H](CC2=NOC(Cc3ccccc3)C2)[C@H](O)[C@@H](n2cc(-c3cc(F)c(F)c(F)c3)nn2)[C@H]1O (stereo partly drawn) [Ex 1.36]
A: 0 (no)

Q: Say whether its IC50 is strictly beneath 2 µM. Entry: CO[C@@H]1[C@@H](n2cc(-c3cc(F)c(F)c(F)c3)nn2)[C@@H](O)[C@@H](CO)O[C@@H]1Cc1cc(C2(O)CCCCC2)on1 [Ex 1.73]
A: 0 (no)

Q: Say whether its IC50 is strictly beneath 2 µM. Entry: CO[C@@H]1[C@@H](n2cc(-c3cc(F)c(F)c(F)c3)nn2)[C@@H](O)[C@@H](CO)O[C@@H]1CC1CN(C2CCOCC2)C(=O)O1 (mixture of isomers) [Example 5.17]
A: 0 (no)

Q: Say whether its IC50 is strictly beneath 2 µM. Entry: OC[C@H]1O[C@H](CC2CC(C3CCOCC3)=NO2)[C@H](O)[C@@H](n2cc(-c3cc(F)c(F)c(F)c3)nn2)[C@H]1O (stereo partly drawn) [Ex 1.22]
A: 0 (no)

Q: Say whether its IC50 is strictly beneath 2 µM. Entry: CO[C@@H]1[C@@H](n2cc(-c3ccc(Br)c(F)c3F)nn2)[C@@H](O)[C@@H](CO)O[C@@H]1Cc1cc(C2CCCCC2)on1 [Ex 1.173]
A: 0 (no)

Q: Say whether its IC50 is strictly beneath 2 µM. Entry: CO[C@@H]1[C@@H](n2cc(-c3cc(F)c(F)c(F)c3)nn2)[C@@H](O)[C@@H](CO)O[C@@H]1Cc1cc(C(C)(C)NC(=O)OC(C)(C)C)no1 [Ex 1.216]
A: 0 (no)

Q: Say whether its IC50 is strictly beneath 2 µM. Entry: CO[C@@H]1[C@@H](n2cc(-c3cc(F)c(F)c(F)c3)nn2)[C@@H](O)[C@@H](CO)O[C@@H]1C[C@@H]1CC(C2CCN(C(=O)OC(C)(C)C)CC2)=NO1 [Ex 1.48]
A: 1 (yes)

Value source: patent US12319672B2
